Source listed as the kinase profiling compilation of Christmann-Franck et al. (2016).

- assay target: CAMK2A (human)
- assay procedure: radiometric filter-binding kinase assay, Kinase HotSpot
- assay context: compound 0.5 µM; ATP 10 µM

{"molecule": "Oc1ccc(Nc2nc(-c3ccc(Cl)cc3)cs2)cc1", "assay target": "CAMK2A (human)", "unit string": "%", "residual activity": 106}
{"molecule": "Nc1nccc(-c2c(-c3ccc(F)cc3)ncn2C2CCNCC2)n1", "assay target": "CAMK2A (human)", "unit string": "%", "residual activity": 100}
{"molecule": "CCn1cnc2c(Nc3cccc(Cl)c3)nc(N[C@@H]3CCCC[C@@H]3N)nc21", "assay target": "CAMK2A (human)", "unit string": "%", "residual activity": 96.5}
{"molecule": "Cn1sc(=O)n(Cc2ccccc2)c1=O", "assay target": "CAMK2A (human)", "unit string": "%", "residual activity": 106}
{"molecule": "CC(C)c1nn(-c2c(Cl)cccc2Cl)c2nc(Cc3ccc(OCCO)cc3)nc(O)c12", "assay target": "CAMK2A (human)", "unit string": "%", "residual activity": 106}
{"molecule": "COc1ccc(OC)c2c(=S)c3ccccc3[nH]c12", "assay target": "CAMK2A (human)", "unit string": "%", "residual activity": 100}
{"molecule": "CC(C)[C@H](CO)Nc1nc(Nc2cc(N)cc(Cl)c2)c2ncn(C(C)C)c2n1", "assay target": "CAMK2A (human)", "unit string": "%", "residual activity": 83.9}
{"molecule": "COc1cc2ncc(-c3ccccc3)nc2cc1OC", "assay target": "CAMK2A (human)", "unit string": "%", "residual activity": 99.5}
{"molecule": "O=C(Nc1cccc(Nc2cc(Nc3cccc(C(F)(F)F)c3)ncn2)c1)C1CC1", "assay target": "CAMK2A (human)", "unit string": "%", "residual activity": 104}
{"molecule": "O=C1Nc2ccccc2/C1=C1/Nc2ccccc2/C1=N\\OCCC(O)CO (configuration not stated)", "assay target": "CAMK2A (human)", "unit string": "%", "residual activity": 12.2}
{"molecule": "CN(C)C[C@H]1CCn2c(c(C3=C(c4cn(C)c5ccccc45)C(=O)NC3=O)c3ccccc32)C1", "assay target": "CAMK2A (human)", "unit string": "%", "residual activity": 100}
{"molecule": "Cc1nc2cc3nc(-c4cccs4)cnc3cc2n1C", "assay target": "CAMK2A (human)", "unit string": "%", "residual activity": 105}
{"molecule": "CC(=O)O/N=C1\\C(=C2\\C(=O)Nc3cc(Br)ccc32)Nc2ccccc21", "assay target": "CAMK2A (human)", "unit string": "%", "residual activity": 89.2}
{"molecule": "Cn1nc2c3c(cccc31)C(=O)c1ccccc1-2", "assay target": "CAMK2A (human)", "unit string": "%", "residual activity": 106}
{"molecule": "O=C1NC(=O)C(c2cn(CCCO)c3ncccc23)=C1c1cnccn1", "assay target": "CAMK2A (human)", "unit string": "%", "residual activity": 108}
{"molecule": "O=C1Nc2ccccc2/C1=C1\\Nc2ccccc2\\C1=N/O", "assay target": "CAMK2A (human)", "unit string": "%", "residual activity": 50.2}
{"molecule": "Nc1nnc2[nH]c3ccccc3nc1-2", "assay target": "CAMK2A (human)", "unit string": "%", "residual activity": 99.5}
{"molecule": "O=C(O)/C=C/c1cc(Br)c(Br)c(Br)c1Br", "assay target": "CAMK2A (human)", "unit string": "%", "residual activity": 64.4}
{"molecule": "O=C1Cc2c([nH]c3ccc(Br)cc23)-c2ccccc2N1", "assay target": "CAMK2A (human)", "unit string": "%", "residual activity": 105}
{"molecule": "O=C1NC(=O)/C(=C\\c2ccc3nccnc3c2)S1", "assay target": "CAMK2A (human)", "unit string": "%", "residual activity": 92.3}
{"molecule": "COc1cc2ncnc(N3CCN(C(=O)Nc4ccc(Oc5ccccc5)cc4)CC3)c2cc1OC", "assay target": "CAMK2A (human)", "unit string": "%", "residual activity": 89.9}
{"molecule": "COc1ccc(CNC(=O)Nc2ncc([N+](=O)[O-])s2)cc1", "assay target": "CAMK2A (human)", "unit string": "%", "residual activity": 98.8}
{"molecule": "O=C(CCCc1ccc(-c2ccccc2F)cc1)Nc1ccc(O)cc1", "assay target": "CAMK2A (human)", "unit string": "%", "residual activity": 116}
{"molecule": "CN([C@@H](Cc1ccc(OS(=O)(=O)c2cccc3cnccc23)cc1)C(=O)N1CCN(c2ccccc2)CC1)S(=O)(=O)c1cccc2cnccc12", "assay target": "CAMK2A (human)", "unit string": "%", "residual activity": 107}
{"molecule": "O=C1NC(=O)C(c2c[nH]c3ccccc23)=C1c1c[nH]c2ccccc12", "assay target": "CAMK2A (human)", "unit string": "%", "residual activity": 85.3}
{"molecule": "Cn1cnc2cc3c(Nc4cccc(Br)c4)ncnc3cc21", "assay target": "CAMK2A (human)", "unit string": "%", "residual activity": 102}
{"molecule": "CCN(CC)CCCCN1c2ccccc2Oc2ccc(Cl)cc21", "assay target": "CAMK2A (human)", "unit string": "%", "residual activity": 104}

###

- assay target: MAPK3 (human) (UniProt P27361)
- Sequence (P27361 whole entry, looked up): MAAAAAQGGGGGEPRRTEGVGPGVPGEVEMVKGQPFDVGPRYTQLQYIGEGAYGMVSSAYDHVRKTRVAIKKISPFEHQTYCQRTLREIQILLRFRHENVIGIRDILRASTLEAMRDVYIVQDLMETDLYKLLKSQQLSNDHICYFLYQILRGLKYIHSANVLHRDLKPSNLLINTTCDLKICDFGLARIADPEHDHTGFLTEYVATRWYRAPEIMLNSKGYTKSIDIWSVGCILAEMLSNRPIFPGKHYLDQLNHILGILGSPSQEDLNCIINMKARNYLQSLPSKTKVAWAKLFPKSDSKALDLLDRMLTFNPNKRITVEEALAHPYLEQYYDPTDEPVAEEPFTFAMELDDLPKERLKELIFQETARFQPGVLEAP
- assay procedure: radiometric filter-binding kinase assay, Kinase HotSpot
- assay context: compound 0.5 µM; ATP 10 µM
Listed here: items and their measured residual activity.
readout label: residual activity (%)

{"smiles structure": "Cn1sc(=O)n(Cc2ccccc2)c1=O", "readout label": "residual activity", "recorded result": 90.4}
{"smiles structure": "O=C1Nc2ccccc2/C1=C1\\Nc2ccccc2\\C1=N/O", "readout label": "residual activity", "recorded result": 90.4}
{"smiles structure": "Nc1nnc2[nH]c3ccccc3nc1-2", "readout label": "residual activity", "recorded result": 113}
{"smiles structure": "CCN(CC)CCCCN1c2ccccc2Oc2ccc(Cl)cc21", "readout label": "residual activity", "recorded result": 111}
{"smiles structure": "COc1ccc(CNC(=O)Nc2ncc([N+](=O)[O-])s2)cc1", "readout label": "residual activity", "recorded result": 103}

###

- assay target: PDGFRA (human)
- assay procedure: radiometric filter-binding kinase assay, Kinase HotSpot
- assay context: compound 0.5 µM; ATP 10 µM

{"compound": "Cn1sc(=O)n(Cc2ccccc2)c1=O", "residual activity [%]": 84.1}
{"compound": "Cn1cnc2cc3c(Nc4cccc(Br)c4)ncnc3cc21", "residual activity [%]": 107}
{"compound": "Oc1ccc(Nc2nc(-c3ccc(Cl)cc3)cs2)cc1", "residual activity [%]": 101}
{"compound": "CN([C@@H](Cc1ccc(OS(=O)(=O)c2cccc3cnccc23)cc1)C(=O)N1CCN(c2ccccc2)CC1)S(=O)(=O)c1cccc2cnccc12", "residual activity [%]": 99.6}
{"compound": "CCn1cnc2c(Nc3cccc(Cl)c3)nc(N[C@@H]3CCCC[C@@H]3N)nc21", "residual activity [%]": 100}
{"compound": "O=C1Cc2c([nH]c3ccc(Br)cc23)-c2ccccc2N1", "residual activity [%]": 103}
{"compound": "CN(C)C[C@H]1CCn2c(c(C3=C(c4cn(C)c5ccccc45)C(=O)NC3=O)c3ccccc32)C1", "residual activity [%]": 93.1}
{"compound": "O=C1Nc2ccccc2/C1=C1/Nc2ccccc2/C1=N\\OCCC(O)CO (configuration not stated)", "residual activity [%]": 76.7}
{"compound": "Cc1nc2cc3nc(-c4cccs4)cnc3cc2n1C", "residual activity [%]": 23.8}
{"compound": "Cn1nc2c3c(cccc31)C(=O)c1ccccc1-2", "residual activity [%]": 97.6}
{"compound": "CCN(CC)CCCCN1c2ccccc2Oc2ccc(Cl)cc21", "residual activity [%]": 102}
{"compound": "CC(=O)O/N=C1\\C(=C2\\C(=O)Nc3cc(Br)ccc32)Nc2ccccc21", "residual activity [%]": 82.9}
{"compound": "CC(C)c1nn(-c2c(Cl)cccc2Cl)c2nc(Cc3ccc(OCCO)cc3)nc(O)c12", "residual activity [%]": 91.6}
{"compound": "O=C1NC(=O)C(c2cn(CCCO)c3ncccc23)=C1c1cnccn1", "residual activity [%]": 113}
{"compound": "COc1cc2ncc(-c3ccccc3)nc2cc1OC", "residual activity [%]": 83.1}
{"compound": "O=C(O)/C=C/c1cc(Br)c(Br)c(Br)c1Br", "residual activity [%]": 105}
{"compound": "CC(C)[C@H](CO)Nc1nc(Nc2cc(N)cc(Cl)c2)c2ncn(C(C)C)c2n1", "residual activity [%]": 89.4}
{"compound": "O=C1Nc2ccccc2/C1=C1\\Nc2ccccc2\\C1=N/O", "residual activity [%]": 90.9}
{"compound": "COc1cc2ncnc(N3CCN(C(=O)Nc4ccc(Oc5ccccc5)cc4)CC3)c2cc1OC", "residual activity [%]": 16.4}
{"compound": "O=C1NC(=O)/C(=C\\c2ccc3nccnc3c2)S1", "residual activity [%]": 106}
{"compound": "COc1ccc(CNC(=O)Nc2ncc([N+](=O)[O-])s2)cc1", "residual activity [%]": 93}
{"compound": "Nc1nccc(-c2c(-c3ccc(F)cc3)ncn2C2CCNCC2)n1", "residual activity [%]": 95.8}
{"compound": "O=C(CCCc1ccc(-c2ccccc2F)cc1)Nc1ccc(O)cc1", "residual activity [%]": 96.5}
{"compound": "Nc1nnc2[nH]c3ccccc3nc1-2", "residual activity [%]": 103}
{"compound": "COc1ccc(OC)c2c(=S)c3ccccc3[nH]c12", "residual activity [%]": 85.6}
{"compound": "O=C(Nc1cccc(Nc2cc(Nc3cccc(C(F)(F)F)c3)ncn2)c1)C1CC1", "residual activity [%]": 86.4}
{"compound": "O=C1NC(=O)C(c2c[nH]c3ccccc23)=C1c1c[nH]c2ccccc12", "residual activity [%]": 90.6}
